# Tested on: MDA-MB-435
Possible outcomes: active, inactive

[[record]]
compound = "O=C(CCN1CCCC1)Nc1ccc2c(NCc3ccccc3)c3ccccc3nc2c1"
label_value = "inactive"

[[record]]
compound = "CCC(=O)N1C/C(=C/c2ccc(Cl)cc2)C(=O)/C(=C/c2ccc(Cl)cc2)C1"
label_value = "active"

[[record]]
compound = "Cc1ccc2nc3ccccc3c(NCc3ccc(Cl)cc3)c2c1"
label_value = "inactive"

[[record]]
compound = "COC(=O)c1cc(-c2ccccc2)[nH]c1N/N=C/c1c(Cl)cccc1Cl"
label_value = "active"

[[record]]
compound = "CCCn1c2c(c3c(O)cccc31)C(=O)c1ccccc1-2"
label_value = "inactive"

[[record]]
compound = "CCCCNNC(=O)c1ccc(Br)cc1"
label_value = "inactive"

[[record]]
compound = "Nc1ccn(C2CC(F)C(CO)O2)c(=O)n1 (stereo unspecified)"
label_value = "inactive"

[[record]]
compound = "COc1ccc(-c2cc(=O)n(-c3nc4ccccc4[nH]3)[nH]2)cc1OC"
label_value = "inactive"

[[record]]
compound = "CN(C)C(=O)Nc1nc2cc(Cl)c(Cl)cc2[nH]1"
label_value = "active"

[[record]]
compound = "COc1cc2c3c(n(CCCN)c(=O)c2cc1OC)-c1ccc([N+](=O)[O-])cc1C3=O"
label_value = "inactive"

[[record]]
compound = "COC(=O)c1c2c(c(C)[n+]([O-])c1C)C(=O)C=C(NCc1ccccc1)C2=O"
label_value = "active"


###

# Test system: KM12 colon
# ASSAY DETAILS: NCI tumour cell line growth inhibition, 48 h
*1 amine or outer side, *2 acyl side, *3 side chain or, on linkers, in order; H or OH if unused. Where a SMILES comes first, the peptide text is derived from it. Bridges are numbered along the chain shown (N, C = ends). Roman numbers before positions name the chains, in order. [ ]: non-standard residue; d: D form. Actinocin(9to1) = Cc1c2oc3c(C)ccc(C(=O)[*:1])c3nc-2c(C(=O)[*:2])c(N)c1=O; NMeH = CN[CH](Cc1c[nH]cn1)C(=O)O; Sar = CNCC(=O)O
QUANTITY MEASURED: TGI

[[record]]
compound = "CC1C(NNC(N)=O)Oc2cc3c(cc2C1c1ccccc1O)OCO3 (stereo not given)"
quantity_measured = "TGI"
result = "> 100 µM"

[[record]]
compound = "COc1ccc(-n2c(=O)c3[nH]c(=S)[nH]c3n(-c3ccc(OC)cc3)c2=S)cc1"
quantity_measured = "TGI"
result = "> 100 µM"

[[record]]
compound = "OCCCCC#Cc1ccccc1C#Cc1ccc(O)cc1"
quantity_measured = "TGI"
result = "30.9 µM"

[[record]]
compound = "Cc1ccc(/C=C/c2c(C(=O)/C=C/c3ccccc3)c(C)nc3ccccc23)cc1"
quantity_measured = "TGI"
result = "3.36 µM"

[[record]]
compound = "O=C(O)CCC(=O)OCN1C(=O)C2C3C=CC(C2C1=O)C1C2C(=O)N(COC(=O)CCC(=O)O)C(=O)C2C31 (stereo not given)"
quantity_measured = "TGI"
result = "> 100 µM"

[[record]]
compound = "Cc1c2oc3c(C)ccc(C(=O)NC4C(=O)NC(C(C)C)C(=O)N5CCCC5C(=O)N(C)CC(=O)N(C)C(Cc5cnc[nH]5)C(=O)OC4C)c3nc-2c(C(=O)NC2C(=O)NC(C(C)C)C(=O)N3CCCC3C(=O)N(C)CC(=O)N(C)C(Cc3cnc[nH]3)C(=O)OC2C)c(N)c1=O (stereo not given) (I: TVP[Sar][NMeH] / II: TVP[Sar][NMeH]; ester I:1-I:C, II:1-II:C; linker I:N-II:N via Actinocin(9to1); configuration not given here)"
quantity_measured = "TGI"
result = "> 100 µM"

[[record]]
compound = "O=S(=O)(NC1CCCCC1)c1ccc2c(c1)OCCOCCOCCOCCO2"
quantity_measured = "TGI"
result = "> 100 µM"

[[record]]
compound = "O=C(CCN1CCOCC1)/C(=C/c1ccccc1)c1ccccc1"
quantity_measured = "TGI"
result = "16.5 µM"

[[record]]
compound = "CCOc1ccc2c(-c3ccnc(Nc4cc(OC)cc(C(F)(F)F)c4)n3)cnn2n1"
quantity_measured = "TGI"
result = "> 25 µM"

[[record]]
compound = "O=C(O)C(Cc1cnc[nH]1)N1C(=O)c2ccccc2C1=O (stereo not given)"
quantity_measured = "TGI"
result = "> 100 µM"


###

# Test system: PC-3 prostate
# ASSAY DETAILS: NCI tumour cell line growth inhibition, 48 h
QUANTITY MEASURED: TGI

[[record]]
compound = "Cn1nc2ccc(Nc3cc(=O)[nH]c4ccc5nn(C)nc5c34)cc2n1"
result = "> 100 µM"

[[record]]
compound = "N#C/C(=C/C=C/c1ccco1)C(N)=O"
result = "> 10 µM"

[[record]]
compound = "O=C(COc1ccc(OCC(=O)N2C(=O)CC(=O)N(c3ccc(Cl)cc3)C2=S)cc1)N1C(=O)CC(=O)N(c2ccc(Cl)cc2)C1=S"
result = "> 100 µM"

[[record]]
compound = "COc1ccc2c(c1)[n+](=O)c(C(=O)c1cccs1)c(C(F)(F)F)n2[O-]"
result = "18.6 µM"

[[record]]
compound = "O=C(O)C[C@H](O)C[C@H](O)/C=C/c1c(C2CC2)nc2ccccc2c1-c1ccc(F)cc1"
result = "> 100 µM"

[[record]]
compound = "CCCCc1ccc(Nc2ncc3ncn(COCCO)c3n2)cc1"
result = "> 100 µM"

[[record]]
compound = "COC(C/C(=C/CO[Si](C(C)C)(C(C)C)C(C)C)C(=O)N(COCC[Si](C)(C)C)c1ccccc1I)OC"
result = "83.6 µM"

[[record]]
compound = "N#CC1(C#N)C(C#N)(C#N)C1(C#N)C(N)=O"
result = "> 100 µM"

[[record]]
compound = "CCOC(=O)C1CC(C(=O)c2ccccc2)N2c3ccccc3-c3ccccc3C12 (stereo not given)"
result = "> 100 µM"

[[record]]
compound = "CCOC(=O)N1C/C(=C\\c2ccccc2)C(=O)/C(=C/c2ccccc2)C1"
result = "5.16 µM"


###

Examples of compounds with documented TGI follow.
# Test system: HS 578T breast
# ASSAY DETAILS: NCI tumour cell line growth inhibition, 48 h
QUANTITY MEASURED: TGI

[[record]]
compound = "O=c1[nH]nc(-c2ccccc2)n1/N=C/c1ccc([N+](=O)[O-])o1"
quantity_measured = "TGI"
result = "> 100 µM"

[[record]]
compound = "CCCn1c2c(c3c(O)cccc31)C(=O)c1ccccc1-2"
quantity_measured = "TGI"
result = "> 100 µM"

[[record]]
compound = "CC1CC/C(=C\\c2ccc(F)cc2)C2=C1C(c1ccc(F)cc1)N1C(=O)CSC1=N2 (stereo not given)"
quantity_measured = "TGI"
result = "> 100 µM"

[[record]]
compound = "CC1=CC2C(C(O)CC3(C)C2CC(C)C32OCOC23COCO3)C2(C)C/C(=C/O)C(=O)C=C12 (stereo not given)"
quantity_measured = "TGI"
result = "5.72 µM"

[[record]]
compound = "N#Cc1nc2cc(Cl)ccc2nc1N1CCN(c2ccc([N+](=O)[O-])cc2)CC1"
quantity_measured = "TGI"
result = "> 100 µM"


###

# Tested on: NCI-H522 lung
# ASSAY DETAILS: NCI tumour cell line growth inhibition, 48 h; in the data active = GI50 below about 0.43 µM; inactive = the rest
Outcome codes: Yes (active), No (inactive)

[[record]]
molecule = "CC1=CC2C(C(O)CC3(C)C2CC(C)C32OCOC23COCO3)C2(C)C/C(=C/O)C(=O)C=C12 (stereo not given)"
label_value = "No"

[[record]]
molecule = "O=C(CCN1CCCC1)Nc1ccc2c(NCc3ccccc3)c3ccccc3nc2c1"
label_value = "Yes"

[[record]]
molecule = "CN(C)c1ccc(Nc2c3ccccc3nc3ccccc23)cc1"
label_value = "No"

[[record]]
molecule = "COc1cc(-c2nc3ccccc3s2)ccc1OCCCCOc1cc2c(cc1OC)C(=O)N1CCC[C@H]1C=N2"
label_value = "No"

[[record]]
molecule = "CCC(=O)N1C/C(=C/c2ccc(Cl)cc2)C(=O)/C(=C/c2ccc(Cl)cc2)C1"
label_value = "No"

[[record]]
molecule = "COC(=O)c1c2c(c(C)[n+]([O-])c1C)C(=O)C=C(NCc1ccccc1)C2=O"
label_value = "No"

[[record]]
molecule = "COc1ccc(/C=C(/c2ccccc2)[N+](=O)[O-])c(OC)c1"
label_value = "No"

[[record]]
molecule = "CN(C)C(=O)Nc1nc2cc(Cl)c(Cl)cc2[nH]1"
label_value = "Yes"

[[record]]
molecule = "CCCCCCCCCCCC1=NC(C)(C)CN1C(C)(C)CO"
label_value = "No"

[[record]]
molecule = "Cc1cn2c(/C=C3/C(=O)Nc4c3ccc3ccccc43)c(C(F)(F)F)nc2s1"
label_value = "No"

[[record]]
molecule = "COc1ccc(-c2cc(=O)n(-c3nc4ccccc4[nH]3)[nH]2)cc1OC"
label_value = "No"

[[record]]
molecule = "COc1ccc2c(c1)nc(NNC(=O)c1cnccn1)c1cccn12"
label_value = "Yes"

[[record]]
molecule = "Cc1ccc(/C=C(\\C#N)c2cc3ccccc3n2C)cc1"
label_value = "Yes"

[[record]]
molecule = "Oc1c(C(Nc2ccccc2Br)c2ccccc2)ccc2cccnc12 (stereo not given)"
label_value = "No"

[[record]]
molecule = "CCCCC(SC(=S)N1CCCC1)C(=O)Nc1nc(CC(=O)OCC)cs1 (stereo not given)"
label_value = "No"


All values here come from PubChem BioAssay (NCI).
